- assayTarget: D-dimer (TGpr1; fibrin clot degradation product DD) (UniProt P02671;P02675;P02679-2 P02671:124-225,P02675:164-491,P02679-2:89-437)
- experiment: ELONA; unit printed as Nm
- conditionLabel: chain copies: 2
quantityName: Kd (nM)
State just the number; it will be interpreted in nM.

Enquiry: For the binder AP10-01-81 (ssDNA) DNA: GGACAGGACCACACCCAGCGACAGTGTGGGCGGGCGGGTGGTTTGGAGCTGGTAGCGGTAGGCTCCTGTGTGTCGCTTTGT , what Kd is on record?
Return: 59
